Test system: COLO 205 colon
measurement description: NCI-60 one-dose screen, 48 h (100 = growth as untreated, 0 = no growth, -100 = all killed)
assay conditions: 10 µM unless noted
The panel holds about 83,000 compounds, 20% with a hit somewhere; the sample as a whole holds those more often.
Tick true (1) if growth is 80% or greater. Tick false (0) if growth is less than 80%.

> print(dat)
                            smiles.notation  category
1  Cc1ccc2nc(COc3ccc(C(=O)NNC(=O)Nc4ccc(Cl)c(C(F)(F)F)c4)cc3)[nH]c2c1  true (1)

Check if growth >= 80% (inclusive). Item: Oc1cncc(-c2ccc3ncnc(N4CCc5cc(F)c(Cl)cc54)c3c2)c1 false (0)

Check if growth >= 80% (inclusive). Item: COc1cc(-c2ccc3ncnc(N4CCc5ccc(Cl)cc54)c3c2)cnc1Cl false (0)

Check if growth >= 80% (inclusive). Item: COc1ccc(-c2nc3ccccc3n2CC(=O)N=Nc2c(O)[nH]c3ccc(Br)cc23)cc1 true (1)

Check if growth >= 80% (inclusive). Item: Cc1nn(-c2ccccc2)c2nc(C)n(CC(=O)N/N=C/c3ccccc3O)c(=O)c12 false (0)

* * *

Tested on: MDA-MB-468 breast
measurement description: NCI-60 one-dose screen, 48 h (100 = growth as untreated, 0 = no growth, -100 = all killed)
assay conditions: 10 µM unless noted
Procedure: Growth inhibition of the MDA-MB-468 human Breast tumor cell line is measured as a screen for anti-cancer activity. Cells are grown in 96 well plates and exposed to the test compound for 48 hours. Compounds are tested at a single concentration, which is 10^-5 M for most compounds. The reported endpoint is percent growth (GI% or GIPRCNT), where numbers from 0 - 100% represent growth inhibition, and numbers from -100% - 0 represent cell death. […]
This is part of a sample that, as a whole, favours compounds with a hit. Of some 83,000 tested, about 20% had one in any assay.
I'd appreciate it if you could supply growth values for the items below.
Answers are plain numbers, in %.

> print(dat)
                                   compound          tested.on  reading.unit  measured.value
1  COc1sc(/C=N/NC(=O)c2[nH]c3ccc(Br)cc3c2-c2ccccc2)cc1Cl  MDA-MB-468 breast             %           -6.37

Record growth for all entries; do not skip any.
1. CN(C)CCOc1ccc(C(=O)C2[C@H](c3ccc(Cl)cc3)[C@@H](c3ccccc3)NC23C(=O)Nc2ccc(Cl)cc23)cc1 (some centres undefined)
2. O=C(Nc1ccc(-c2ccc3c(c2)NC(=O)/C3=C\c2ccc[nH]2)cc1)Nc1ccc(Cl)c(C(F)(F)F)c1
3. Cc1ccc2c(c1)/C(=C/C(=O)c1cc3ccccc3oc1=O)C(=O)N2
4. Clc1ccc(CNc2nc(SCCN3CCOCC3)nc3c2cnn3CC(Cl)c2ccc(Br)cc2)cc1 (centres undefined)
5. Clc1ccc2c(NCCNC34CC5CC(CC(C5)C3)C4)ccnc2c1

1: -92.3; 2: -18.4; 3: -69.3; 4: 39.9; 5: -92.3

Record growth for all entries; do not skip any.
1. CCOc1ccccc1[C@H]1C(C(=O)c2ccc(Cl)cc2)C2(N[C@@H]1c1ccccc1)C(=O)Nc1ccc(Cl)cc12 (some centres undefined)
2. N#Cc1c(-c2ccc(F)cc2)nc(SCc2ccccc2)nc1N1CCNCC1

1: 4.39; 2: -64.3

// COc1ccc2[nH]c(O)c(N=Nc3nc(-c4ccccc4)cs3)c2c1 : growth value = -20.7

Just for reference, PubChem BioAssay (NCI) is where these values come from.
